Where do these numbers come from? They come from patent EP0638079B1.

Avg. thickness of rear paws (mm) over days 30-44, Treated values for the compounds below.
tested on: DBA/1 mice; experiment: Type II collagen arthritis mouse model (visual inflammation, rear paw swelling); type: in vivo; settings: Table IIB; 44 day measurement (second value); caliper
Respond numerically; units are mm and should not be typed.

These solved cases illustrate the format of a correct answer.
> print(dat)
                                   compound  result.unit  experimental.value
1  CCc1c(CN(C)c2ccc(C(=O)N[C@@H](CCC(=O)O)C(=O)O)s2)cnc2nc(N)nc(N)c12           mm                2.32
2  Cc1c(CNc2ccc(C(=O)N[C@@H](CCC(=O)O)C(=O)O)s2)cnc2nc(N)nc(N)c12           mm                2.33
3  CN(Cc1cnc2nc(N)nc(N)c2n1)c1ccc(C(=O)N[C@@H](CCC(=O)O)C(=O)O)cc1 [MTX, methotrexate, reference compound]           mm                2.34

Here's the next entry for you.
In: Given `Cc1c(CN(C)c2ccc(C(=O)N[C@@H](CCC(=O)O)C(=O)O)s2)cnc2nc(N)nc(N)c12` , state its recorded Avg. thickness of rear paws (mm) over days 30-44, Treated.
Out: 2.27
